- TEST PROTOCOL: NCI Yeast Anticancer Drug Screen. Data for the sgs1 mgt1 strain (AID 161)
- CONDITION DESCRIPTION: S. cerevisiae sgs1 mgt1 strain, at 5.0 µM (retest, dose inferred, filed as 0.5), stronger effect = higher value
Compounds without any hit were thinned out: in the full panel of roughly 79,000, 15% have a hit.
Could you label it t if measured growth inhibition is 10% or higher, and f otherwise?

## Input Check if growth inhibition >= 10% (inclusive). Item: C/C(=N/NC(=O)c1ccccc1S(N)(=O)=O)C(CN1CCCCC1)C(C1=C(O)C2C=CC=CC2OC1=O)c1ccccc1 (stereo unspecified)
## Output t

## Input Check if growth inhibition >= 10% (inclusive). Item: `O=c1c(-c2ccccc2)c1-c1ccccc1`
## Output f

## Input Check if growth inhibition >= 10% (inclusive). Item: CCCCCCCCCCCCCCCC1(OC)C[N+](C)(C)CCO1 (stereo unspecified)
## Output t

## Input Check if growth inhibition >= 10% (inclusive). Item: Cc1ccccc1NC(=O)C(=O)C(C#N)c1c(Cl)cccc1Cl (stereo unspecified)
## Output f

## Input Check if growth inhibition >= 10% (inclusive). Item: `O=C(c1ccccc1)N1CCCCC1`
## Output f

## Input Check if growth inhibition >= 10% (inclusive). Item: CCCOC1(C)CC(c2cc(OC)c(OC)c(OC)c2)c2cc3c(cc2O1)OCO3 (stereo unspecified)
## Output f

## Input Check if growth inhibition >= 10% (inclusive). Item: `O=C1C=CC(=O)N1c1ccc(Cl)cc1`
## Output t

## Input Check if growth inhibition >= 10% (inclusive). Item: `CC(=O)Nc1ccc2c(c1)C(=Nc1ccc(F)cc1)c1ccccc1-2`
## Output f

## Input Check if growth inhibition >= 10% (inclusive). Item: C=C1CC(c2ccc(OCCCN3C(=O)c4ccccc4C3=O)cc2)OC1=O (stereo unspecified)
## Output t

## Input Check if growth inhibition >= 10% (inclusive). Item: `COc1cc(CC(=O)O)c(Cc2ccc3c(c2)Cc2ccccc2-3)cc1OC`
## Output f

## Input Check if growth inhibition >= 10% (inclusive). Item: `Cc1ccc(/C=N/NC(N)=S)cc1C`
## Output f

## Input Check if growth inhibition >= 10% (inclusive). Item: `O=C(Oc1ccc(Cl)cc1)Oc1ccc(Cl)cc1`
## Output f

## Input Check if growth inhibition >= 10% (inclusive). Item: `O=C1/C(=C\c2ccc(Cl)cc2Cl)Sc2scc(-c3cccc([N+](=O)[O-])c3)[n+]21`
## Output t

## Input Check if growth inhibition >= 10% (inclusive). Item: `O=C(CCl)N(Cc1ccccc1)Cc1ccccc1`
## Output f

## Input Check if growth inhibition >= 10% (inclusive). Item: `O=C(O)c1ccc(CSc2ccc(Cl)cc2)cc1`
## Output t

## Input Check if growth inhibition >= 10% (inclusive). Item: `Nc1cccc2c1[nH]c(=O)c1ccccc12`
## Output f

## Input Check if growth inhibition >= 10% (inclusive). Item: `N#CC(C#N)C(c1ccccc1)c1ccccc1`
## Output f

## Input Check if growth inhibition >= 10% (inclusive). Item: CC(C)=CC(=O)OC(CCCc1ccccc1)c1ccc2c(c1)OCO2 (stereo unspecified)
## Output f

## Input Check if growth inhibition >= 10% (inclusive). Item: `Cc1ccc(N=C2SC(=S)N(CCC[N+](C)(C)C)C2=Nc2ccc(C)cc2)cc1`
## Output f

## Input Check if growth inhibition >= 10% (inclusive). Item: `O=[N+]([O-])c1ccc2c(c1)/C(=N\O)c1cc(Br)ccc1-2`
## Output t
